Molecular target: UniProt P0A6Y8
Sequence (P0A6Y8 2-638): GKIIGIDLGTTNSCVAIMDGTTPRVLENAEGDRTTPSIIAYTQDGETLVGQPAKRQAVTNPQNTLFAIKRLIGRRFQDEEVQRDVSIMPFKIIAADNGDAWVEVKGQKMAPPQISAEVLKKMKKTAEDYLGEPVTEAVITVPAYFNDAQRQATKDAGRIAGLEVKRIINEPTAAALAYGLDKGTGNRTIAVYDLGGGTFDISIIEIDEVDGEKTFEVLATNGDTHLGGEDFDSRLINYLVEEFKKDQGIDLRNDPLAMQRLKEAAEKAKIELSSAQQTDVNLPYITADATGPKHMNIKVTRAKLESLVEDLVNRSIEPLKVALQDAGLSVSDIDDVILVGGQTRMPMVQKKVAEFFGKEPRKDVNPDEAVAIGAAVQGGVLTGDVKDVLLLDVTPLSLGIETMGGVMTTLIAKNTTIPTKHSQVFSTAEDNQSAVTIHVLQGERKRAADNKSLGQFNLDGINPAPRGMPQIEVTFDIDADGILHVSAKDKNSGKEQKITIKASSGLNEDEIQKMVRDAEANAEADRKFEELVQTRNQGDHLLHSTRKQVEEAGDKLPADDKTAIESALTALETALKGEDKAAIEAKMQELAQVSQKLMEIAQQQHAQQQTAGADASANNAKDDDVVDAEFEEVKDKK
Assay: Steady-state multi-parametric surface plasmon resonance at 25 °C with Hsp70 immobilised by amine coupling and ATP (0-20 uM) injected as analyte.
Assay type: binding
Design: recombinant full-length, N-terminal His6 tag (pQE30), expressed in E. coli XL1 Blue
Conditions: SD, n = 3; read-out: KD /µM (± standard deviation)
measure name: Kd (µM)
Hi! Could you send only the number? It should be in µM, unit omitted.

Ask: Param item = Nc1ncnc2c1ncn2[C@@H]1O[C@H](COP(=O)(O)OP(=O)(O)OP(=O)(O)O)[C@@H](O)[C@H]1O [ATP, adenosine 5'-triphosphate] ; retrieve measured Kd.
Reply: 83.8

###

Target: KPf
Assay: ATP binding affinity by MP-SPR, KPf
Conditions: read-out: ATP KD (± standard deviation), 25 °C, immobilized KPf, ATP analyte 0-20 μM, steady state equilibrium, three independent assays
measure name: Kd
The reply should read as a number followed by its unit.

Ask: Param item = Nc1ncnc2c1ncn2[C@@H]1O[C@H](COP(=O)(O)OP(=O)(O)OP(=O)(O)O)[C@@H](O)[C@H]1O [ATP] ; retrieve measured Kd.
Reply: 380 nM
